Origin of measurements: patent US20090042785A1

- system_name: mCTLA-4-Fc (R&D Systems) (mouse, UniProt P09793 36-162)
- Sequence (P09793 whole entry): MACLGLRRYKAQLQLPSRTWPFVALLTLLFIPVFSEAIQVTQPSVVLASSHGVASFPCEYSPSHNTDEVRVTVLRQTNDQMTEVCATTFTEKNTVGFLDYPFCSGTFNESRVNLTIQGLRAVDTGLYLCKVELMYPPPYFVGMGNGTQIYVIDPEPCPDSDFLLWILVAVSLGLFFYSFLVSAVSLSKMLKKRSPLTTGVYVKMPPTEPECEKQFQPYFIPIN
- experimental_details: SPR as in Example 9
measured_metric: koff (s⁻¹)

{"columns": ["binder", "recorded_value"],
 "data": [
  ["hNGAL mutein S140.4-O10 without T7 tag (designed binder, also called S140.4-O10 (-T7 tag); S140.4-O10(-T7)) QDSTSDLIPAPPLSKVPLQQNFQDNQFHGKWYVVGLAGNRILRDDQHPMNMYATIYELKEDKSYNVTSVISSHKKCEYTIATFVPGSQPGEFTLGNIKSYGDKTSYLVRVVSTDYNQYAVVFFKLAEDNAEFFAITIYGRTKELASELKENFIRFSKSLGLPENHIVFPVPIDQCIDG", 0.000416],
  ["hNGAL mutein S140.4-O10 (designed binder, also called Onc I-002) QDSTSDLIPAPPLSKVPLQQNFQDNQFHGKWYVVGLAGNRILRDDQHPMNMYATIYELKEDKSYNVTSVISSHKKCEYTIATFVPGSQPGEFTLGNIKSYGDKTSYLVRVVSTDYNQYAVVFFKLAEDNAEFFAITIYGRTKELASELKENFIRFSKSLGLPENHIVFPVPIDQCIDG", 0.00049],
  ["hNGAL mutein S140.4-B16 (designed binder, tagged entry not tied to the name; not shown: N-terminal T7 detection tag from vector phNGAL37; C-terminal Strep-tag II from vector phNGAL37) QDSTSDLIPAPPLSKVPLQQNFQDNQFHGKWYVVGLAGNRILRDDQHPMNMYATIYELKEDKSYNVTSVIFPHKKCEYTIATFVPGSQPGEFTLSDIKSYGDKTSYLVRVVSTDYNQYAVVFFKLAEDNAEFFAITIYGRTKELASELKENFIRFSKSLGLPENHIVFPVPIDQCIDG", 0.00056],
  ["hNGAL mutein S140.1-F09 (designed binder, tagged entry not tied to the name; not shown: N-terminal T7 detection tag from vector phNGAL37; C-terminal Strep-tag II from vector phNGAL37) QDSTSDLIPAPPLSKVPLQQNFQDNQFHGKWYVVGLAGNRILRDDQHPMNMYATIYELKEDKSYNVTSVISSHKKCEYTIATFVPGSQPGEFTLGNIKSYGDKTSYLVRVVSTNYNQYAVVFFKLAEDNAEFFAITIYGRTKELASELKENFIRFSKSLGLPENHIVFPVPIDQCIDG", 0.000379]
]}
